Tested on: HCT 116 colon carcinoma cell line
Assay: Cell proliferation assay (ATPlite), HCT 116
Format: cell-based, human
Conditions: 5 day proliferation assay, HCT 116 (Suppl. Table 1)
Value Kind: pIC50
Quick note: pIC50 means taking -log10 of the concentration in moles per liter.

Request: # query: pIC50 | item CCc1cccc(CC)c1NC(=O)c1ccn2c1CCc1cnc(Nc3ccc(N4CCN(C)CC4)cc3OC)nc1-2 [NTRC 0066-0] | system: HCT 116 colon carcinoma cell line
Result: 7.39

====

Tested on: pediatric T-ALL patient cell samples
Test: Viability assays with T-ALL patient samples
Assay type: cell-based, human
Conditions: patient sample 10110, three-day assay; read-out: IC50
Procedure: Written informed consent was obtained from the parents or legal guardians of each T-ALL patient to use excess diagnostic material for research purposes. […] Cell proliferation assays were carried out as described using ATPlite 1step™ (Perkin Elmer, Groningen, The Netherlands). […] Percentage growth was calculated, relative to the growth of unexposed cells, and relative IC50s were fitted using a four-parameter logistics curve (XLfit 5.3, IDBS). […]
Value Kind: pIC50
# pIC50 is unitless: minus log10 of the molar concentration; print number only

Request: API: value(readout= pIC50, system= pediatric T-ALL patient cell samples, query= CCc1cccc(CC)c1NC(=O)c1ccn2c1CCc1cnc(Nc3ccc(N4CCN(C)CC4)cc3OC)nc1-2 [NTRC 0066-0] )
Result: 5.35
